Attribution: patent US12187702B2

# TEST DESCRIPTION: PK, intravenous administration
# Assay type: in vivo, male Sprague Dawley rats
# EXPERIMENTAL SETUP: male, Sprague Dawley, plasma, rat, dose per compound as in Table 3
Where a name gives a salt, the structure may show the parent alone.
QUANTITY MEASURED: half-life (h)
Number in h, nothing else.

Report half-life for COc1cc(-c2ccc3c(c2NC(=O)NS(=O)(=O)N2CC4CCN(C)C4C2)CCC3)ccn1 (stereo not shown) please.
5.61

Report half-life for CC(C)N1CCC(N(C)S(=O)(=O)NC(=O)Nc2c3c(cc4c2CCC4)CCC3)C1 (stereo not shown) [Example 36, potassium salt] please.
1.1

Report half-life for CN(C)CCN(C)S(=O)(=O)NC(=O)Nc1c2c(cc3c1CCC3)CCC2 [Example 6, potassium salt] please.
2.7

Report half-life for CN(C)CCNS(=O)(=O)NC(=O)Nc1c2c(cc3c1CCC3)CCC2 please.
4

Report half-life for CN1CC[C@@H](N(C)S(=O)(=O)NC(=O)Nc2c3c(cc4c2CCC4)CCC3)C1 [Example 66, potassium salt] please.
3.44

Report half-life for CN1CCCCC1CNS(=O)(=O)NC(=O)Nc1c2c(cc3c1CCC3)CCC2 (stereo not shown) [Example 20, potassium salt] please.
1.2

Report half-life for COc1cc(-c2ccc3c(c2NC(=O)NS(=O)(=O)N(C)[C@H]2CCN(C)C2)CCC3)ccn1 [Example 111, potassium salt] please.
4.8

* * *

# TEST DESCRIPTION: PK, oral administration
# Assay type: in vivo, male Sprague Dawley rats
# EXPERIMENTAL SETUP: male, Sprague Dawley, plasma, rat, 3 mg/kg
Where a name gives a salt, the structure may show the parent alone.
Provide the reported Cmax of each item.

Report Cmax for COc1cc(-c2ccc3c(c2NC(=O)NS(=O)(=O)N(C)[C@H]2CCN(C)C2)CCC3)ccn1 [Example 111, potassium salt] please.
318 ng/mL

Report Cmax for COc1cc(-c2ccc3c(c2NC(=O)NS(=O)(=O)N(C)[C@@H]2CCN(C)C2)CCC3)ccn1 [Example 110, potassium salt] please.
277 ng/mL

* * *

Provide the reported clearance of each item.
# TEST DESCRIPTION: PK, intravenous administration
# Assay type: in vivo, male Sprague Dawley rats
# EXPERIMENTAL SETUP: male, Sprague Dawley, plasma, rat, dose per compound as in Table 3
Structures can show the parent of a compound that is named as a salt.

Report clearance for CC(C)N1CCC(N(C)S(=O)(=O)NC(=O)Nc2c3c(cc4c2CCC4)CCC3)C1 (stereo not shown) [Example 36, potassium salt] please.
2.8 mL/min/kg

Report clearance for CN(C)CCNS(=O)(=O)NC(=O)Nc1c2c(cc3c1CCC3)CCC2 [Example 8] please.
7.3 mL/min/kg

Report clearance for CN1CCCCC1CNS(=O)(=O)NC(=O)Nc1c2c(cc3c1CCC3)CCC2 (stereo not shown) [Example 20, potassium salt] please.
7.1 mL/min/kg

Report clearance for COc1cc(-c2ccc3c(c2NC(=O)NS(=O)(=O)N2CC4CCN(C)C4C2)CCC3)ccn1 (stereo not shown) [Example 106] please.
6 mL/min/kg

Report clearance for COc1cc(-c2ccc3c(c2NC(=O)NS(=O)(=O)N(C)[C@H]2CCN(C)C2)CCC3)ccn1 [Example 111, potassium salt] please.
17 mL/min/kg

Report clearance for CN(C)CCN(C)S(=O)(=O)NC(=O)Nc1c2c(cc3c1CCC3)CCC2 [Example 6, potassium salt] please.
2.3 mL/min/kg

Report clearance for CN1CCC(N(C)S(=O)(=O)NC(=O)Nc2c3c(cc4c2CCC4)CCC3)C1 (stereo not shown) [Example 11, potassium salt] please.
2.9 mL/min/kg

Report clearance for CN1CCC2CN(S(=O)(=O)NC(=O)Nc3c4c(cc5c3CCC5)CCC4)CC21 (stereo not shown) [Example 96, potassium salt] please.
5.7 mL/min/kg

Report clearance for COc1cc(-c2ccc3c(c2NC(=O)NS(=O)(=O)N(C)[C@@H]2CCN(C)C2)CCC3)ccn1 [Example 110, potassium salt] please.
20 mL/min/kg

Report clearance for CN1CC[C@@H](N(C)S(=O)(=O)NC(=O)Nc2c3c(cc4c2CCC4)CCC3)C1 [Example 66, potassium salt] please.
3.7 mL/min/kg
